# System: CAKI-1
# TEST_DETAILS: Antiproliferative activity against human CAKI-1 cells assessed as cell growth inhibition measured after 48 hrs by sulforhodamine B assay
# Assay type: functional, cell-based
# CONDITION_NOTES: CAKI-1, 48 h
For each of the compounds below, state its IC50.
Answers are plain numbers, in nM.

CCNC(=O)Nc1ccc(S(=O)(=O)Oc2ccccc2CC)cc1 ... 759

Switching to the query record.
Task: Quick one: IC50 of Cc1c(-c2ccc(-c3ccccc3F)cc2)nc2ccc(F)cc2c1C(=O)O ?
Output: 912

* * *

# Tested on: COLO 205
# TEST_DETAILS: Antiproliferative activity against human COLO 205 cells assessed as cell growth inhibition measured after 48 hrs by sulforhodamine B assay
# Assay type: functional, cell-based
# CONDITION_NOTES: COLO 205, 48 h
For each of the molecules below, state its IC50.
One number for each entry, in nM.

Cc1c(-c2ccc(-c3ccccc3F)cc2)nc2ccc(F)cc2c1C(=O)O ... 513

Continue with the molecule presented below.
Task: Please give the measured IC50 for this molecule: CCNC(=O)Nc1ccc(S(=O)(=O)Oc2ccccc2CC)cc1
Output: 2510
